# tested target: human ether-à-go-go-related gene (hERG) potassium channel (human, UniProt Q12809);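 further: peak tail current of the secondary pulse compared with the same well before compound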
# Sequence (Q12809 whole entry, looked up): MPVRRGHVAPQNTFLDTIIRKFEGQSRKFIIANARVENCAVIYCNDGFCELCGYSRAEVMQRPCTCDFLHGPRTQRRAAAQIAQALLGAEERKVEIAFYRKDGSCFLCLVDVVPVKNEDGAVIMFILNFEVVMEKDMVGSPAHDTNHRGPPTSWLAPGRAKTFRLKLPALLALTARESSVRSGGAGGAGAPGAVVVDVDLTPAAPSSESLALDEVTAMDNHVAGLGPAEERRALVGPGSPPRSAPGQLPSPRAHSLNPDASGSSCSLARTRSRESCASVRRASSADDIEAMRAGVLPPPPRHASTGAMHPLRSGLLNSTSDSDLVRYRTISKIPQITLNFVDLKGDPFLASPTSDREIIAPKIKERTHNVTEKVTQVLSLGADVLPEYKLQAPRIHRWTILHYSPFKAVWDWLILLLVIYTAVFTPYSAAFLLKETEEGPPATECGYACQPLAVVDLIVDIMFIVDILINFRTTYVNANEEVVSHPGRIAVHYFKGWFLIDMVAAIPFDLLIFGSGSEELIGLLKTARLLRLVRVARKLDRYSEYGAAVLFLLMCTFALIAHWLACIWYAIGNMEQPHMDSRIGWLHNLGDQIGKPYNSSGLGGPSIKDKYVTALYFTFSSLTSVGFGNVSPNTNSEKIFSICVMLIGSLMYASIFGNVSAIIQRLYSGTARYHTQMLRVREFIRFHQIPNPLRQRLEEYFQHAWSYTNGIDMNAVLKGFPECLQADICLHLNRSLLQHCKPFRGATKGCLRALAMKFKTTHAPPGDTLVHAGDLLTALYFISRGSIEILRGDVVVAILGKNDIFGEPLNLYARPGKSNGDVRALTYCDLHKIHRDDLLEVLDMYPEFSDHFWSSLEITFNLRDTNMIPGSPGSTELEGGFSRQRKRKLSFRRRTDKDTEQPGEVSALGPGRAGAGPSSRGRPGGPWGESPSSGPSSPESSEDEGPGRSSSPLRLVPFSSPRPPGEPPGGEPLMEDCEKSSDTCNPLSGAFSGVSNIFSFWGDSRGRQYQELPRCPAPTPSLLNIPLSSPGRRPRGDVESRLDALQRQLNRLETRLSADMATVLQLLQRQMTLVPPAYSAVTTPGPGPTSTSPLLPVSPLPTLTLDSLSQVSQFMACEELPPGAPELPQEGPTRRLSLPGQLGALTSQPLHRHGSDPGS
# assay summary: primary screen, population patch clamp on CHO cells stably expressing hERG; higher = less effect of the substance
# Procedure: Briefly, Chinese hamster ovary (CHO) cells stably expressing the hERG channel were dislodged from tissue culture flasks and dispensed into PPC plates. […] During the recording, background leak currents were estimated by a 100 ms step to -80 mV from an initial holding potential of -70 mV and subtracted from the subsequent current measurement. The campaign was conducted in two phases using slight differences in recording protocol. […]
The campaign covered roughly 310,000 compounds. About 14,000 (4.5%) showed an effect of 50% or more. Effects have a minus sign here. This is one part of a sample in which strong results are shown more often than they occur.
property name: hERG current change (%, negative = inhibition) at 10uM (%)
Return type: number; implicit unit %.

{"molecule": "CCNc1nc2c(c(=O)n(C)c(=O)n2C)n1Cc1ccc(Cl)cc1", "data value": -7.07}
{"molecule": "COc1ccc(Cl)cc1NC(=O)CCCN1C(=O)CCC1=O", "data value": 14.4}
{"molecule": "O=C(NCc1ccc2c(c1)OCO2)c1ccc2c(=O)n(C3CCCC3)c(=O)[nH]c2c1", "data value": 4.61}

Input Cc1c(NC2=CC(=O)CCC2)c(=O)n(-c2ccccc2)n1C . Output hERG current change (%, negative = inhibition) at 10uM: 8.37

Field hERG current change (%, negative = inhibition) at 10uM (entry CC(=O)OCc1c(C(F)(F)F)nn(C)c1SCc1ccc(Cl)cc1 ) reads 8.19

Quick note, hERG current change (%, negative = inhibition) at 10uM for CC(NC=O)c1nc2ccccc2n1CCc1ccccc1 (stereo not shown) landed at 5.34

GET /value?item= COc1ccccc1-c1coc2cc(O)cc(O)c2c1=O &field=hERG current change (%, negative = inhibition) at 10uM returns 9.89

In plain terms, CCCn1c(=N)n(CC(O)COc2cccc(C)c2)c2ccccc21.Cl (stereo not shown) has a documented hERG current change (%, negative = inhibition) at 10uM of -71.3

Lab book: hERG current change (%, negative = inhibition) at 10uM of Cc1cc(C)n(-c2nc(N(C)C)nc(N3CCOCC3)n2)n1 noted as -6.78

For record O=C(NCCN1CCOCC1)c1cccc(S(=O)(=O)N2CCCCCC2)c1 the listed hERG current change (%, negative = inhibition) at 10uM is 7.38
